TGT: T1, hGDF11 homodimer (human, UniProt O95390 299-407)
T1 sequence (looked up): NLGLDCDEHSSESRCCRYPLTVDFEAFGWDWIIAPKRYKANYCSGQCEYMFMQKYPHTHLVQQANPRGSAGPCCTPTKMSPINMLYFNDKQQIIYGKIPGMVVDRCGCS
EXPERIMENT: cell-based or functional assay
MEASURED_PARAMETER: IC50, GDF11-inducible luciferase, A204/Smad2 cells, 0.8 nM GDF11

BINDER: 21-E9 (antibody, V domains shown) VH: EVQLVQLGPGLVKPSETLSLTCTVSGGSISNSNYYWGWIRQPPGKGLEWIGTTYYSGTTYYNPSLKSRVTISVDTSKNQFSLKLSSVTAADTAVYYCARDYYDSSGYYYNWFDPWGQGTTVTVSS VL: AIQMTQSPSSLSASVGDRVTITCRASQDIRNDLGWYQQKPGKAPKRLIYAASSLQSGVPSRFSGSGSGTEFSLTLSSLQPEDFATYFCLQHHIYPWTFGQGTKVEIKR
READOUT_VALUE: 1.2 nM

BINDER: 8D12-1 (antibody, V domains shown, probably the same antibody as 8D12) VH: QVQLVESGGGVVQPGRSLRLSCAASGFTFSRYGIHWVRQAPGKGLEWVAVISYDGSDEYYVDSVKGRFSISRDNSKNTLYLQMNSLRPADSAVYYCVKGDLELGFDYWGQGTLVTVSS VL: DIVMTQAAPSIPVIPGESVSMSCRSSKSLLYSNGHTYVYWFVQRPGQSPQLLIYRMSNLASGVPDRFSGSGSGTAFTLRISRVEAEDVGVYYCMQNLEFPLTFGAGTKLELK
READOUT_VALUE: > 25 nM

BINDER: 4B9 (antibody, V domains shown) VH: EVQLLESGGGLVQPGGSLRLSCAASGFTSITYAMSWVRQAPGKGLEWVSAISVSGTNTYYADSVKGRFTISRDKSKNMLYLQMNSLRAEDTAVYYCAKDLLHNWKYGTFDIWGQGTMVTVSS VL: EIVMTQSPATLSVSPGERATLSCRASQSVDSNLVWYQQKPGQVPRLLIYGASTRATGIPARFSGSGSGTEFTLTISSLQSEDFAVYYCQQYNKWPLTFGGGTKVEIK
READOUT_VALUE: > 25 nM
